quantity name: melting point (°C)
Answers are plain numbers, in °C.

compound | melting point, °C
Cc1cccc(OCc2cc3n(n2)C(C)CN(c2ccc(F)cc2)C3=O)c1 (centres unmarked) [Example 242] | 70.2

List reported melting point for each of these compounds:
1. O=C1c2cc(COc3ncccn3)nn2CCN1c1ccc(F)cc1 [Example 194]
2. O=C1c2cc(COc3ccccc3)nn2CCN1c1cncnc1 [Example 31]
3. CN(C)c1ccnc(N2CCn3nc(COc4ccccc4)cc3C2=O)c1 [Example 282]
4. O=C1c2cc(COc3ccccc3)nn2CCN1c1ncccc1Cl [Example 68]
5. O=C1c2cc(COc3ncccc3F)nn2CCN1c1ccc(F)cc1 [Example 187]
6. Cc1ccc(N(C)C)nc1N1CCn2nc(COc3ccccc3)cc2C1=O [Example 291]

[179.5, 240, 190.2, 127.5, 165, 117.9]

----------
Field: pEC50. Provide a value for each of the compounds that follow.
- measurement target: human mGluR5a receptor (Homo sapiens, UniProt P41594)
- Construct: cDNA subcloned into pcDNA3.1(-)
- Sequence (P41594 21-1180 isoform P41594-2 limits assumed): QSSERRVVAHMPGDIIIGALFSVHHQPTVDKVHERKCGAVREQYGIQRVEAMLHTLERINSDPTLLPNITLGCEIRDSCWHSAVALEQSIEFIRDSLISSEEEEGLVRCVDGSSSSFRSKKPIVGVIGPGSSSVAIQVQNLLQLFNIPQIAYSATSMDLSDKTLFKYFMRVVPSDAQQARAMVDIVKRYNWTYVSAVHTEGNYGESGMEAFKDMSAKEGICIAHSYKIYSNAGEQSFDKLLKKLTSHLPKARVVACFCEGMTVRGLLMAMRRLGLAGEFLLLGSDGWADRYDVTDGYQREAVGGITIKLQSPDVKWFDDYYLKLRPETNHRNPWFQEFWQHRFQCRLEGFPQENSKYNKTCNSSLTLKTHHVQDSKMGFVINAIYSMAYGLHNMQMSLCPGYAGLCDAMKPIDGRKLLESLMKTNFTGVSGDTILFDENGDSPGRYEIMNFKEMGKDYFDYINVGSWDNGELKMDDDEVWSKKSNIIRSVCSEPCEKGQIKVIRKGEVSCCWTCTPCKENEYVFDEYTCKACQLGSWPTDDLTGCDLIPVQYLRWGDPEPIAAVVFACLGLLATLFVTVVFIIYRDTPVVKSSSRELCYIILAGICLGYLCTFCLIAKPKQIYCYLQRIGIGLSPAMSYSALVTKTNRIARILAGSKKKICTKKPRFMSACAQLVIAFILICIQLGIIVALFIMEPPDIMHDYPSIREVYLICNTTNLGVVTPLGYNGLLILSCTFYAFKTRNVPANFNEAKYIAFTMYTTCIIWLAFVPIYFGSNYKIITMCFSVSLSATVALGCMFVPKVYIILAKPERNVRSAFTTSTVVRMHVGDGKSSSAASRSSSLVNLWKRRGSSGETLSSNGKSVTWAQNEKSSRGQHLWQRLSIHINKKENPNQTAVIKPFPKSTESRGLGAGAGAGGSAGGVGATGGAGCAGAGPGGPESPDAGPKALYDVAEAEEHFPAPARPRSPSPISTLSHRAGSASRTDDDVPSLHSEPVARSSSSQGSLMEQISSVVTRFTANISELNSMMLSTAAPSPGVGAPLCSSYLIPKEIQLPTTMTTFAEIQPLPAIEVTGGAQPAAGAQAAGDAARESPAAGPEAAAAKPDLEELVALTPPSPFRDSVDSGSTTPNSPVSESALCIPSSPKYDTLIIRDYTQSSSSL
- measurement notes: Cell-based functional Ca2+ mobilization assay (FDSS), potentiation of glutamate EC20 response
- condition summary: HEK cells transfected with human mGluR5 (H10H or H12H); in presence of EC20 glutamate

Please review the entries below; each comes with its answer.
structure notation | experimental result
O=C1c2cc(COc3ccccc3)nn2CCN1c1ccc2nsnc2c1 | 7.49
O=C1c2cc(COc3ccccc3)nn2CCN1c1ccc2scnc2c1 | 7.14

List reported pEC50 for each of these compounds:
1. Cc1ccnc(OCc2cc3n(n2)CCN(c2ccc(F)cc2)C3=O)n1
2. Cc1cccc(N2CCn3nc(COc4ccccc4)cc3C2=O)c1

1. <4.52
2. 7.09

List reported pEC50 for each of these compounds:
1. Cn1cc2ccc(N3CCn4nc(COc5ccccc5)cc4C3=O)cc2n1
2. Cc1cc(F)cnc1N1CCn2nc(COc3ccccc3)cc2C1=O
3. CC(C)CN1CCn2nc(COc3ccccc3)cc2C1=O
4. O=C1c2cc(COc3ccccc3)nn2CCN1c1ncccc1F
5. CN(C)c1ccc(N2CCn3nc(COc4ccccc4)cc3C2=O)nn1
6. Cc1cccc(N2CCn3nc(COc4ccccc4)cc3C2=O)c1C
7. COc1nccnc1N1CCn2nc(COc3ccc(F)cc3)cc2C1=O
8. O=C1c2nc(COc3ccccc3)nn2CCN1c1ccc(F)cc1

1: 6.07; 2: 6.69; 3: 6.98; 4: 6.26; 5: 5.55; 6: 7.62; 7: 6.08; 8: 5.59

List reported pEC50 for each of these compounds:
1. COc1ccc(N2CCn3nc(COc4ccccc4)cc3C2=O)nc1OC
2. COc1cnc(N2CCn3nc(COc4ccccc4)cc3C2=O)cn1
3. Cc1cc(OCc2cc3n(n2)CCN(c2ccc(F)cc2)C3=O)ncn1

1: 7.02; 2: 6.53; 3: <5.00

----------
Field: pEC50. Provide a value for each of the molecules that follow.
- measurement target: human mGluR5a receptor (Homo sapiens)
- Construct: cDNA subcloned into pcDNA3.1(-)
- measurement notes: Cell-based functional Ca2+ mobilization assay (FDSS), potentiation of glutamate EC20 response
- condition summary: HEK cells transfected with human mGluR5 (H10H or H12H); in presence of EC20 glutamate

Please review the entries below; each comes with its answer.
molecule | pEC50
Cn1cncc1N1CCn2nc(COc3ccccc3)cc2C1=O [Example 352] | <5.00
O=C1c2cc(COc3ccccc3O)nn2CCN1c1ccc(F)cn1 [Example 377] | <5.00

Now consider a different molecule.
Looking up O=C1c2c(Cl)c(COc3ccccc3)nn2CCN1c1ccc(F)cc1 [Example 260] , I see its pEC50 listed as <4.52
